Data credit: patent US12570614B2

We begin with a simple list: items and their reported pIC50.
System: CTLL2
Test: Cellular screening, CTLL2 cells (Alamar Blue)
Type: cell-based
Details: Mus musculus, CTLL-2; 48-72 hr incubation; read-out: CTLL2_IC50_μM
pIC50: −log10 of the molar value.
MEASURED QUANTITY: pIC50

SAMPLE SMILES	OBSERVED RESULT
COc1cc(-c2ccnc(Nc3ccc(N4CCOCC4)cc3)n2)ccc1C(=O)NCC#N	> 6.00
N#CCNC(=O)CNC(=O)c1ccc(-c2ccnc(Nc3ccc(N4CCOCC4)cc3)n2)cc1	> 5.30
N#CCNC(=O)c1ccc(-c2ccnc(Nc3ccc(N4CCOCC4)cc3)n2)cc1	> 5.30
N#CCNC(=O)c1ccc(-c2nc(Nc3ccc(N4CCOCC4)cc3)ncc2Cl)cc1	> 5.30

---

We begin with a simple list: items and their reported pIC50.
System: CTLL2
Test: Cellular screening, CTLL2 cells (Alamar Blue)
Type: cell-based
Conditions: Mus musculus, CTLL-2; 48-72 hr incubation; read-out: CTLL2_IC50_μM
pIC50: −log10 of the molar value. Structures can show the parent of a compound that is named as a salt.
MEASURED QUANTITY: pIC50

COMPOUND	ASSAY TARGET	MEASURED QUANTITY	OBSERVED RESULT
Cc1cnc(Nc2ccc(N3CCC(CO)CC3)cc2)nc1-c1ccc(C(=O)NCC#N)cc1	CTLL2	pIC50	> 5.30
O=C(NCC1CCCO1)c1ccc(-c2ccnc(Nc3ccc(N4CCOCC4)cc3)n2)cc1 (stereo not drawn)	CTLL2	pIC50	> 4.70
Cc1cnc(Nc2ccc(N3CCOCC3)cc2)nc1-c1ccc(C(=O)NCC#N)cc1	CTLL2	pIC50	> 6.00
N#CCNC(=O)c1ccc(-c2ccnc(Nc3ccc(C(=O)N4CCC(N5CCCC5)CC4)cc3)n2)cc1	CTLL2	pIC50	< 4.70
Cc1cnc(Nc2ccc(N3CCC(NS(C)(=O)=O)CC3)cc2)nc1-c1ccc(C(=O)NCC#N)cc1	CTLL2	pIC50	> 5.30
COc1cc(Nc2nccc(-c3ccc(C(=O)NCC#N)cc3)n2)cc(OC)c1OC	CTLL2	pIC50	> 5.30
N#CCNC(=O)c1ccc(-c2ccnc(Nc3ccc(N4CCC(CO)CC4)cc3)n2)cc1	CTLL2	pIC50	> 5.30
N#CCNC(=O)c1ccc(-c2ccnc(Nc3ccc(N4CCSCC4)cc3)n2)cc1	CTLL2	pIC50	> 5.30
CCCOCc1cccc(Nc2nccc(-c3ccc(C(=O)NCC#N)cc3)n2)c1	CTLL2	pIC50	> 5.30
N#CCNC(=O)c1ccc(-c2ccnc(Nc3ccc(OC4CCNCC4)cc3)n2)cc1	CTLL2	pIC50	> 5.30
N#CCNC(=O)c1ccc(-c2nc(Nc3ccc(N4CCOCC4)cc3)ncc2F)cc1	CTLL2	pIC50	> 6.00
N#CCNC(=O)c1ccc(-c2ccnc(Nc3ccc(CN4CCS(=O)(=O)CC4)cc3)n2)cc1	CTLL2	pIC50	> 4.70
C#CCN(c1ccc(-c2ccnc(Nc3ccc(N4CCOCC4)cc3)n2)cc1)S(C)(=O)=O [Compound 57, tosylate]	CTLL2	pIC50	> 5.30
CS(=O)(=O)N(CC#N)c1ccc(-c2ccnc(Nc3ccc(N4CCOCC4)c(C#N)c3)n2)cc1	CTLL2	pIC50	> 5.30
COc1cc(-c2ccnc(Nc3ccc(N4CCOCC4)cc3)n2)ccc1C#N	CTLL2	pIC50	< 4.70
O=C(NCc1cccnc1)c1ccc(-c2ccnc(Nc3ccc(N4CCOCC4)cc3)n2)cc1	CTLL2	pIC50	> 4.70
CN1CCN(c2ccc(Nc3nccc(-c4ccc(C(=O)NCC#N)cc4)n3)cc2)CC1	CTLL2	pIC50	> 5.30
Cc1cnc(Nc2ccc(N3CCC(O)CC3)cc2)nc1-c1ccc(C(=O)NCC#N)cc1	CTLL2	pIC50	> 6.00
N#CCNC(=O)c1ccc(-c2ccnc(Nc3ccc(N4CCC(O)CC4)cc3)n2)cc1	CTLL2	pIC50	> 5.30
C=CCOCc1cc(Nc2nccc(-c3ccc(C(=O)NCC#N)cc3)n2)ccc1N1CCOCC1	CTLL2	pIC50	> 5.30
N#CCNC(=O)c1ccc(-c2nc(Nc3ccc(N4CCOCC4)cc3)ncc2Br)cc1	CTLL2	pIC50	> 6.00
CCOC(=O)c1ccc(-c2ccnc(Nc3ccc(N4CCOCC4)cc3)n2)cc1	CTLL2	pIC50	< 4.70
N#CCC(=O)Nc1ccc(-c2ccnc(Nc3ccc(N4CCOCC4)cc3)n2)cc1C(F)(F)F	CTLL2	pIC50	> 5.30
CS(=O)(=O)N(CC#N)c1ccc(-c2ccnc(Nc3ccc(N4CCOCC4)cc3)n2)cc1	CTLL2	pIC50	> 5.30
CS(=O)(=O)N(CC#N)c1ccc(-c2ccnc(Nc3ccc(N4CCOCC4)c(F)c3)n2)cc1	CTLL2	pIC50	> 5.30
N#Cc1cc(-c2ccnc(Nc3ccc(N4CCOCC4)cc3)n2)ccc1O	CTLL2	pIC50	> 5.30
CCN1CCC(Oc2ccc(Nc3nccc(-c4ccc(C(=O)NCC#N)cc4)n3)cc2)CC1	CTLL2	pIC50	> 5.30
O=C(NCc1ccncc1)c1ccc(-c2ccnc(Nc3ccc(N4CCOCC4)cc3)n2)cc1	CTLL2	pIC50	< 4.70
N#CCC(=O)Nc1ccc(-c2ccnc(Nc3ccc(N4CCOCC4)cc3)n2)cc1	CTLL2	pIC50	> 6.00
N#CCNC(=O)c1ccc(-c2ccnc(Nc3ccc(N4CCS(=O)(=O)CC4)cc3)n2)cc1	CTLL2	pIC50	> 5.30
Cc1cnc(Nc2ccc(N3CCCC(O)C3)cc2)nc1-c1ccc(C(=O)NCC#N)cc1 (stereo not drawn)	CTLL2	pIC50	> 6.00
Cc1cc(-c2ccnc(Nc3ccc(N4CCOCC4)cc3)n2)ccc1C(=O)NCC#N	CTLL2	pIC50	> 5.30
CC(=O)N1CCN(c2ccc(Nc3nccc(-c4ccc(C(=O)NCC#N)cc4)n3)cc2)CC1	CTLL2	pIC50	> 5.30
